# System: SF-539 CNS
// one of active, inactive, no free text

{"COMPOUND": "COc1ccc(C2C(C#N)=C(N)Oc3c2sc2c(C)cccc32)cc1 (stereo unspecified)", "CATEGORY_LABEL": "active"}
{"COMPOUND": "Cc1nc2ccccn2c1NC(=O)NNC(=S)Nc1ccc(Cl)cc1", "CATEGORY_LABEL": "inactive"}
{"COMPOUND": "Nc1nonc1-c1nc2cnccc2n1C1CCCCC1", "CATEGORY_LABEL": "inactive"}
{"COMPOUND": "c1ccc(N2CCN(CN3CCN(c4ccccc4)C3)C2)cc1", "CATEGORY_LABEL": "inactive"}

query: What did the test return for "C/C(Cc1ccc(Cl)cc1)=C(\c1ccc(OCCN2CCCCCC2)cc1)c1ccc(OC(=O)c2ccccc2)cc1" ?
result: inactive

query: What did the test return for "CCCCCCC[CH2][Sn]([Cl])([Cl])[CH2]CCCCCCC" ?
result: inactive
